bioavailability reference
- assay name: Oral bioavailability in monkey at 0.3 mg/kg
- Assay type: ADME, organism-based, Macaca mulatta
- measurement setup: rhesus monkey, in vivo
The response must be a number in % with no trailing unit.

Enquiry: Provide one value: measured bioavailability of `CCNC(=O)c1cc2c(-c3cc(C(C)(C)O)ccc3Oc3c(C)cc(F)cc3C)cn(C)c(=O)c2[nH]1`
Return: 7

Enquiry: Give bioavailability for the following compound: `CCNC(=O)c1cc2c(-c3cc(S(=O)(=O)CC)ccc3Oc3c(C)cccc3C)cn(C)c(=O)c2[nH]1`
Return: 0

* * *

- assay name: Unbound hepatic clearance in rat liver microsomes
- Format: ADME, Microsome
readout kind: CL free (mL/min/kg)
Quick reminder: number only, in mL/min/kg, skip the unit.

compound	output unit	CL free
CCNC(=O)c1cc2c(-c3cc(S(=O)(=O)CC)ccc3Oc3c(C)cccc3Cl)cn(C)c(=O)c2[nH]1	mL/min/kg	2120
Cc1cccc(C)c1Oc1ccc(C(C)(C)O)cc1-c1cn(C)c(=O)c2[nH]c(C(=O)NC(C)(C)C)cc12	mL/min/kg	3000

Enquiry: Input `CCNC(=O)c1cc2c(-c3ccccc3Cc3c(C)cccc3C)cn(C)c(=O)c2[nH]1` , output reported CL free.
Return: 21700

Enquiry: Please supply the value of reported CL free for the item `CCNC(=O)c1cc2c(-c3cc(S(=O)(=O)CC)ccc3Oc3ccccc3Cl)cn(C)c(=O)c2[nH]1`
Return: 1200

Enquiry: Return reported CL free. Input compound: `CCNC(=O)c1cc2c(-c3cc(S(=O)(=O)CC)ccc3Oc3c(C)cc(Cl)cc3C)cn(C)c(=O)c2[nH]1`
Return: 1580

Enquiry: Quick one: give measured CL free for `CCNC(=O)c1cc2c(-c3cc(S(=O)(=O)CC)ccc3Oc3ccccc3C(C)(C)C)cn(C)c(=O)c2[nH]1`
Return: 1430

Enquiry: Please report CL free for the following compound: `CCNC(=O)c1cc2c(-c3cc(S(C)(=O)=O)ccc3Oc3c(C)cccc3C)cn(C)c(=O)c2[nH]1`
Return: 650

Enquiry: Please give measured CL free of the following entry: COc1ccc2c(c1)[C@]13CCCC[C@@H]1[C@H](C2)N(C)CC3 [DEXTROMETHORPHAN]
Return: 123

* * *

Reported CL free is given for each of the following compounds.
- assay name: Unbound hepatic clearance in rat liver microsomes
- Type: ADME, Microsome
Give your result in mL/min/kg as a bare value.

Some compounds with recorded CL free:
mol smiles	CL free [mL/min/kg]
CCNC(=O)c1cc2c(-c3cc(NC(C)=O)ccc3Oc3c(C)cc(F)cc3C)cn(C)c(=O)c2[nH]1	250
CCNC(=O)c1cc2c(-c3cc(C4(O)CCC4)ccc3Oc3c(C)cc(F)cc3C)cn(C)c(=O)c2[nH]1	6330
CCNC(=O)c1cc2c(-c3cc(S(=O)(=O)CC)ccc3Oc3cc(C)cc(C)c3)cn(C)c(=O)c2[nH]1	1620
CNC(=O)c1cc2c(-c3cc(C(C)(C)O)ccc3Oc3c(C)cc(F)cc3C)cn(C)c(=O)c2[nH]1	167

Enquiry: Write down CL free measured for item `CCNC(=O)c1cc2c(-c3cc(S(=O)(=O)CC)ccc3-c3cccc4cc[nH]c34)cn(C)c(=O)c2[nH]1`
Return: 233

Enquiry: Input `CCNC(=O)c1cc2c(-c3cc(S(=O)(=O)CC)ccc3Oc3c(C)cccc3C)cn(C)c(=O)c2[nH]1` , output reported CL free.
Return: 1070

Enquiry: Please report the measured CL free for `CCNC(=O)c1cc2c(-c3cc(NS(=O)(=O)CC)ccc3Oc3c(C)cccc3C)cn(C)c(=O)c2[nH]1`
Return: 14700
